Compiled IC50 measurements on microsomal triglyceride transfer protein (MTP) (Mesocricetus auratus, UniProt P55158) taken from the literature.

# COMPOUND, UNIT_SPEC, IC50
measured = [
    ("C=CCNC(=O)N1CCC(Oc2cccc(NC(=O)c3cccc(C)c3-c3ccc(OC(F)(F)F)cc3)c2)CC1", "nM", 161),
    ("COC(=O)CCC(=O)N1CCC(Oc2cccc(NC(=O)c3ccccc3-c3ccc(OC(F)(F)F)cc3)c2)CC1", "nM", 296),
    ("Cc1cccc(C(=O)Nc2cccc(OC3CCN(S(C)(=O)=O)CC3)c2)c1-c1ccc(OC(F)(F)F)cc1", "nM", 49.2),
    ("COc1ccc(C(=O)N2CCC(Oc3cccc(NC(=O)c4cccc(C)c4-c4ccc(OC(F)(F)F)cc4)c3)CC2)cc1OC", "nM", 130),
    ("Cc1cccc(C(=O)Nc2cccc(OC3CCN(C(=O)c4cccs4)CC3)c2)c1-c1ccc(OC(F)(F)F)cc1", "nM", 416),
    ("COC(=O)c1ccc(NC(=O)N2CCC(Oc3cccc(NC(=O)c4cccc(C)c4-c4ccc(OC(F)(F)F)cc4)c3)CC2)cc1", "nM", 208),
    ("O=C(NCc1ccncc1)C(CCCCCn1cc(-c2ccccc2)c2cccnc21)C1CCCC1 (centres unmarked)", "nM", 381),
    ("Cc1cccc(C(=O)Nc2cccc(OC3CCN(S(=O)(=O)c4cccnc4Cl)CC3)c2)c1-c1ccc(OC(F)(F)F)cc1", "nM", 290),
    ("Cc1cccc(C(=O)Nc2cccc(OC3CCN(C(=O)OCc4ccccc4)CC3)c2)c1-c1ccc(OC(F)(F)F)cc1", "nM", 45.2),
    ("Cc1cccc(C(=O)Nc2cccc(OC3CCN(Cc4ccncc4)CC3)c2)c1-c1ccc(OC(F)(F)F)cc1", "nM", 189),
    ("CC(=O)OCC(=O)N1CCC(Oc2cccc(NC(=O)c3ccccc3-c3ccc(OC(F)(F)F)cc3)c2)CC1", "nM", 91.2),
    ("CC(=O)OCC(=O)N1CCC(Oc2cccc(NC(=O)c3cccc(C)c3-c3ccc(OC(F)(F)F)cc3)c2)CC1", "nM", 213),
    ("CCOC(=O)CCC(=O)N1CCC(Oc2cccc(NC(=O)c3cccc(C)c3-c3ccc(OC(F)(F)F)cc3)c2)CC1", "nM", 128),
    ("CCn1c(-c2csc(C3CCN(C(=O)c4ccccc4-c4ccc(C(F)(F)F)cc4)CC3)n2)nc(-c2ccccn2)c1C", "nM", 2540),
]
